System: ACHN renal
Assay: NCI-60 one-dose screen, 48 h (100 = growth as untreated, 0 = no growth, -100 = all killed)
Conditions: 10 µM unless noted
About 83,000 compounds went through this panel and 20% of them were active in at least one assay; those are over-represented in the sample as a whole.
Assay endpoint: growth (%)
Provide the reading as a plain figure in %.

Solved entries:
COc1ccc(CNc2nc3ccccc3c3c(=O)c4ccccc4sc23)cc1OC
40.2
Cc1ccn2cc(Cc3cc(=O)oc4c3ccc3ccccc34)c(=O)nc2c1
95.5
CCNC(=O)Oc1ccc(/C(=C(/CC)Cc2ccccc2)c2ccc(OCCN3CCOCC3)cc2)cc1
59.8
CCCCCCCCCCCC(=O)OCCNC(=O)C[n+]1ccccc1
99.9
Nc1ncnc2c1c(-c1ccc(Oc3ccccc3)cc1)nn2C[C@H]1SSC[C@H]1O
10.3
O=[N+]([O-])c1cccc(C(c2ccccc2)c2ccccc2)c1
85.9
CC(C)Cn1cnc2c3ccccc3nc(NCn3nc(-c4cc(Cl)cc(Cl)c4Cl)oc3=S)c21
97.6
O=C(O)c1cc2ccccc2cc1Nc1ccccc1
98.8

Lab note: compound "Nc1ncc(-c2ccc3ncnc(Nc4cncc(Cl)c4)c3c2)cn1" tested on ACHN renal; recorded growth was 41.6

Lab note: compound "CS(=O)(=O)Nc1cccc(-c2ccc3ncnc(Nc4ccc(F)c(Cl)c4)c3c2)c1" tested on ACHN renal; recorded growth was 22.3
